- Study target: hCA IX (Homo sapiens)
- Construct: gene CA9; recombinant, obtained in-house
- Assay summary: stopped-flow CO2 hydration assay
- Format: biochemical
- Assay conditions: read-out: KI (nM)* / CA IX
Measured property: Ki (nM)

[I] O=C1CN(N=Cc2ccc(B(O)O)cc2)C(=O)N1
[II] O=C1CN(N=Cc2ccc(OCc3ccccc3)cc2)C(=O)N1
[III] CCOC(=O)/C=C/C=NN1CC(=O)NC1=O
[IV] O=C1CN(N=Cc2ccccc2)C(=O)N1
[V] COc1ccc(C=NN2CC(=O)NC2=O)cc1
Task for the reader: place the molecules above in descending order according to recorded Ki. Respond with an ordered listing of the labels, as requested.
I, IV, V, III, II

[P] O=C1CN(N=Cc2ccc(O)cc2O)C(=O)N1
[Q] O=C1CN(N=Cc2ccoc2)C(=O)N1
Compare P and Q and name the one whose reported Ki is smaller. Answer by stating the label of the chosen item.
Q
(Q: 850 nM, P: 5800 nM)
